Test system: Influenza, Ann Arbor virus
test details: Influenza Ann Arbor in mice, oral; schedule by table; late read day 5 (Tables 15, 25, 29, 30), 6 (18, 20, 22, 23, 26, 27, 28, 54), 7 (14, 19, 21, 24, 53, 56), 8 (16, 17, 51), 9 (11, 55)
Type: in vivo, mouse
condition summary: total dose 30 ng
Overview of reported Survivors across a group of molecules:
Field format: numeric only.

Previously resolved entries follow.
>>> assay_result("NC(=S)NN=C1Cc2ccccc2C1 [2-indanone, thiosemicarbazone]")
0
>>> assay_result("CCOC(=O)CC(C)=NNC(N)=S")
0
>>> assay_result("CCC(CC)=NNC(N)=S [3-pentanone, thiosemicarbazone]")
0
>>> assay_result("NC(N)=S [Thiourea]")
0
>>> assay_result("CNN [Methylhydrazine, methylhydrazine]")
1

(Q) Indicate the recorded Survivors value for this molecule: CCC(C)=NNC(=N)N.O=[N+]([O-])O [1-(sec-butylideneamino)guanidine nitrate]
(A) 0

(Q) Indicate the recorded Survivors value for this molecule: N=C(N)NN [aminoguanidine]
(A) 2

###

Test system: Herpes virus
test details: Herpes virus in chicken eggs, single dose 24 hours pre-infection
Type: in vivo, chick embryo
condition summary: .00005 μg
measure name: Total deaths, 4th day
Field format: numeric only.

>>> assay_result("NNC(N)=S [Thiosemicarbazide, thiosemicarbazide]")
10
>>> assay_result("NNC(N)=O [semicarbazide]")
11
>>> assay_result("CCC(C)=NNC(N)=S [2-Butanone, thiosemicarbazone, 2-butanone, thiosemicarbazone]")
11

(Q) Send back Herpes virus Total deaths, 4th day of NN [hydrazine] only.
(A) 9

###

System: Influenza B Massachusetts virus
test details: Influenza B Mass. in mice, oral; late read day 5 (Table 39), 7 (Table 40), 11 (Tables 61, 65); control fraction 16/20 (Table 61), else 100%
Format: in vivo, mouse
condition summary: total dose .000005 μg (5 pg)
measure name: No. animals surviving when 100% (Table 61: 16/20) of controls are dead
Field format: numeric only.

Previously resolved entries follow.
>>> assay_result("NNC(N)=O [semicarbazide]")
0
>>> assay_result("NNC(=O)c1ccncc1 [Isoniazid, isoniazid, reference compound]")
0
>>> assay_result("NC(=S)NN=C1CCCCC1 [Cyclohexanone, thiosemicarBazone, Cyclohexanone, thiosemicarbazone]")
5

(Q) Indicate the recorded No. animals surviving when 100% (Table 61: 16/20) of controls are dead value for this compound: N#CCC(=O)NN [Cyonacetic Acid Carbazide, Cyanoacetic Acid Hydrazide]
(A) 3

###

System: Herpes virus
test details: Herpes virus in chicken eggs, single dose 24 hours pre-infection
Type: in vivo, chick embryo
condition summary: 20 μg
measure name: Deaths on day 3
Field format: numeric only.

Previously resolved entries follow.
>>> assay_result("NN [hydrazine]")
4
>>> assay_result("CCC(C)=NNC(N)=S")
1
>>> assay_result("NNC(N)=O [semicarbazide]")
5

Now let's try a different one.
(Q) Send back Herpes virus Deaths on day 3 of NNC(N)=S [Thiosemicarbazide, thiosemicarbazide] only.
(A) 6

###

Test system: Vaccinia IHD virus
Assay type: in vivo, mouse
condition summary: 10 [μg], day 11
Counter-ions that a name gives are not always drawn.
measure name: Statistical Significance of Tail Lesions

Previously resolved entries follow.
>>> assay_result("NNC(N)=O [semicarbazide, hydrochloride]")
"< .01"
>>> assay_result("NN [hydrazine]")
"< .01"
>>> assay_result("CCC(C)=NNC(N)=S")
"< .05"

Now let's try a different one.
(Q) Indicate the recorded Statistical Significance of Tail Lesions value for this molecule: NNC(N)=S [Thiosemicarbazide, thiosemicarbazide]
(A) < .01
